# System: SN12C renal
# assay_method_text: NCI tumour cell line growth inhibition, 48 h

molecule: COc1cc(OC(=O)c2c(O)cc(O)c(O)c2C)cc(C)c1C(=O)Oc1cc(C)c(C(=O)O)c(O)c1
TGI: > 100 µM
//
molecule: O=C(N/N=C/c1cccc(O)c1O)c1ccccc1
TGI: > 100 µM
//
molecule: CC1=C(C)CC2(CCCCC2=O)S(=O)C1 (stereo not drawn)
TGI: > 100 µM
//
molecule: CN1CCCC2C(c3ccccc3)C(C3=NCCCC3)C(c3ccccc3)CC21 (stereo not drawn)
TGI: > 100 µM
//
molecule: CN(C)P(=O)(/C(N)=N/Nc1ccc([N+](=O)[O-])cc1)N(C)C
TGI: > 100 µM
//
molecule: CN(C)CCn1c(=O)c2ccc(NCCNCCO)c3c(=O)c4ccccc4n(c1=O)c23
TGI: 0.509 µM
//
molecule: CN(C)CC/C(=N\Nc1c(Cl)cccc1Cl)c1ccccc1
TGI: 92.7 µM
//
molecule: CCCCCCCCCCCCCCCCP(=O)(O)OCC(N)C(=O)O (stereo not drawn)
TGI: > 100 µM
